Data provenance: PubChem BioAssay (NCI)

- Test system: TK-10 renal
- experiment.description: NCI tumour cell line growth inhibition, 48 h
readout: TGI (µM)

[[record]]
compound = "C=C(C)[C@@H]1CCC2=C[C@H](CC(C)=CC3=CC(C)=C(O3)[C@@H]1OC)OC2=O"
readout = "TGI"
uom = "µM"
result_modifier = ">"
meas_value = 100

[[record]]
compound = "Cc1cc2cn3c4cccnc4[nH]c(=O)c3c2cc1C"
readout = "TGI"
uom = "µM"
result_modifier = "="
meas_value = 3.91

[[record]]
compound = "CCOC(=O)C(C(=O)OCC)=C1NC2(c3ccccc3Nc3ccc(C)cc32)C(C(=O)OC)S1 (stereo not given)"
readout = "TGI"
uom = "µM"
result_modifier = ">"
meas_value = 100

[[record]]
compound = "O=C(NCc1ccncc1)C1COc2cc(-c3cc(=O)c4ccccc4o3)ccc2O1 (stereo not given)"
readout = "TGI"
uom = "µM"
result_modifier = ">"
meas_value = 100

[[record]]
compound = "N=c1c2c(=S)n(-c3ccccc3)c(=S)n(-c3ccccc3)c2nc(SCCN2CCOCC2)n1-c1ccccc1"
readout = "TGI"
uom = "µM"
result_modifier = "="
meas_value = 3.1

